So I've got a bunch of compounds here, and I need their GI50 values.
# System: SF-539
# methodNotes: NCI tumour cell line growth inhibition, 48 h
Activity calls are given as the source filed them. Rule as the data show it: active = GI50 up to about 1.1 µM and inactive = higher.

Examples with their reported GI50 follow.
{"compound": "C[N+](C)(C)CCOP(=O)(O)OP(=O)([O-])OCC1CCC(n2ccc(N)nc2=O)O1 (centres undefined)", "measurement": "> 100 µM (inactive)"}
{"compound": "Cn1cc(C(=O)NCCC(=N)N)cc1NC(=O)C1=[N+](C)C=C(NC(=O)c2cccc(C(=O)NC3=CC(C(=O)Nc4cc(C(=O)NCCC(=N)N)cn4C)=[N+](C)C3)c2)C1", "measurement": "41.2 µM (inactive)"}
{"compound": "O=C1NN=C(c2ccc(Cl)cc2)CC1C1C(=O)N(c2ccccc2)N=C1c1ccccc1 (centres undefined)", "measurement": "25.9 µM (inactive)"}
{"compound": "CC(=O)OCC1OC(n2c(C)c(C(C)=O)c(-c3ccc(Cl)cc3)c(C#N)c2=S)C(OC(C)=O)C(OC(C)=O)C1OC(C)=O (centres undefined)", "measurement": "> 100 µM (inactive)"}
{"compound": "Cc1cc(=O)oc2c(C)c3oc(CBr)c(Br)c3cc12", "measurement": "37.6 µM (inactive)"}

Record GI50 per entry; entries follow.
1. [Zn+2][N+]12CCN3CCN4CCN(CC1)[PH]432 (centres undefined)
2. O=C1Nc2ccccc2S/C1=C\c1ccccc1C(F)(F)F
3. Cc1cc(C)c(N)c(C)c1N
4. O=C1NCC(NC(=O)C(F)(F)F)c2c(Br)sc(Br)c21 (centres undefined)

1. > 100 µM (inactive)
2. 72.8 µM (inactive)
3. > 100 µM (inactive)
4. > 100 µM (inactive)
